- targetOrSystem: UniProt P41594
- Sequence (P41594 21-1212): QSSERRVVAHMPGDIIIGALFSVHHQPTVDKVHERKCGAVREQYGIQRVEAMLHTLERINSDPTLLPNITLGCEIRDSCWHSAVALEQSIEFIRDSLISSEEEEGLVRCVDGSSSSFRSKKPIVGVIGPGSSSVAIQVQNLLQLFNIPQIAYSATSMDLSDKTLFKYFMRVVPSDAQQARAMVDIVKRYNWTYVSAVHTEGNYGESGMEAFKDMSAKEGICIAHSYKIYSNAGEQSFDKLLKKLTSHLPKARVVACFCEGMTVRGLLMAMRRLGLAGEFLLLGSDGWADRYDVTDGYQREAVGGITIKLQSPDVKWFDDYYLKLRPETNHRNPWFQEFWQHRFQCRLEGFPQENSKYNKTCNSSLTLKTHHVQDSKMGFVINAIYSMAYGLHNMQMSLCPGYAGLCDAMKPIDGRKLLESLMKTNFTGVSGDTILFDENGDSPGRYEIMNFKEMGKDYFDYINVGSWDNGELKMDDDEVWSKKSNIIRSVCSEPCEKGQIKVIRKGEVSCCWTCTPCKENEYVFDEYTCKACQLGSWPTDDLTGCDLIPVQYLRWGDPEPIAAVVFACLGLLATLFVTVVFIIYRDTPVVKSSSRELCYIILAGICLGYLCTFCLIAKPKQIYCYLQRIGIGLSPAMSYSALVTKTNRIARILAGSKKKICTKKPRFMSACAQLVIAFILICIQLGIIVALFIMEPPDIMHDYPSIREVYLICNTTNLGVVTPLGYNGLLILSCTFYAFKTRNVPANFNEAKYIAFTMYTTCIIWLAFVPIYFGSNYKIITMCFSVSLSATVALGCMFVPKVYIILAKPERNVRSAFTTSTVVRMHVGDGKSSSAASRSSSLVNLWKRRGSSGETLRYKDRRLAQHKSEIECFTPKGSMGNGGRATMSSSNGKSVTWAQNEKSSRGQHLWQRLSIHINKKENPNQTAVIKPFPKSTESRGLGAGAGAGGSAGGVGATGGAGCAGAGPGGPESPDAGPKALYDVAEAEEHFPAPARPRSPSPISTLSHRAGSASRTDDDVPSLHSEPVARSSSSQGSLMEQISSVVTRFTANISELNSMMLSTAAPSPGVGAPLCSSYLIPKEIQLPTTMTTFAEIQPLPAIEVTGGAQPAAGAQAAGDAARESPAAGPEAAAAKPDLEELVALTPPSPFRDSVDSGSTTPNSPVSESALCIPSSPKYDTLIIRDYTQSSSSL
pKi: −log10 of the molar value.
reportedProperty: pKi

Given the entry `O=C(O)c1cc(NC(=O)N(c2ccccc2)c2ccccc2)c2c(Cl)cc(Cl)cc2n1` , what pKi was observed with UniProt P41594?
< 5.00

----------
- targetOrSystem: GABA site, GABA-A Receptor
- experimentalDetails: PDSP radioligand displacement, [^3H]Muscimol
- cond: read-out: Binding constant Ki, GABA site, GABA-A Receptor
Attribute: pKi
In textbook form, pKi equals minus log to base ten of the concentration in mol/L.

CCOC(=O)c1cc(NC(=O)N(c2ccccc2)c2ccccc2)c2c(Cl)cc(Cl)cc2n1 = 5.77

Shift focus to the following entry.
Returns the measured pKi for the input molecule. Input: `O=C(O)c1cc(NC(=O)N(c2ccccc2)c2ccccc2)c2c(Cl)cc(Cl)cc2n1`
5.18

----------
- targetOrSystem: D2 (Dopamine Rs) (Homo sapiens, UniProt P14416)
- Sequence (P14416 whole entry): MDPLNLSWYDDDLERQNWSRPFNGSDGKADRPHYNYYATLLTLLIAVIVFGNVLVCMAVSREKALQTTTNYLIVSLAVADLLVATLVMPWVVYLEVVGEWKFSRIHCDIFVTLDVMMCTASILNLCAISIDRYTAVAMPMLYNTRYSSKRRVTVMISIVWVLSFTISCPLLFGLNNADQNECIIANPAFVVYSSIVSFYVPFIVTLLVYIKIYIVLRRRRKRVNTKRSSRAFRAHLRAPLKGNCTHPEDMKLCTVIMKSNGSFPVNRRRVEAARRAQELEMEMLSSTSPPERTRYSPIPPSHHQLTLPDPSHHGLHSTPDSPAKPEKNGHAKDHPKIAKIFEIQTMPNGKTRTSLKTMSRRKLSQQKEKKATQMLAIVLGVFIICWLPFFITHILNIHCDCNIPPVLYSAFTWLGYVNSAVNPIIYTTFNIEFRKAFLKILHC
- experimentalDetails: PDSP radioligand binding
pKi: −log10 of the molar value.
reportedProperty: pKi

Returns the measured pKi for the input compound. Input: `O=C(O)c1cc(NC(=O)N(c2ccccc2)c2ccccc2)c2c(Cl)cc(Cl)cc2n1`
< 5.00

----------
- targetOrSystem: UniProt:P08588
- Sequence (P08588 whole entry): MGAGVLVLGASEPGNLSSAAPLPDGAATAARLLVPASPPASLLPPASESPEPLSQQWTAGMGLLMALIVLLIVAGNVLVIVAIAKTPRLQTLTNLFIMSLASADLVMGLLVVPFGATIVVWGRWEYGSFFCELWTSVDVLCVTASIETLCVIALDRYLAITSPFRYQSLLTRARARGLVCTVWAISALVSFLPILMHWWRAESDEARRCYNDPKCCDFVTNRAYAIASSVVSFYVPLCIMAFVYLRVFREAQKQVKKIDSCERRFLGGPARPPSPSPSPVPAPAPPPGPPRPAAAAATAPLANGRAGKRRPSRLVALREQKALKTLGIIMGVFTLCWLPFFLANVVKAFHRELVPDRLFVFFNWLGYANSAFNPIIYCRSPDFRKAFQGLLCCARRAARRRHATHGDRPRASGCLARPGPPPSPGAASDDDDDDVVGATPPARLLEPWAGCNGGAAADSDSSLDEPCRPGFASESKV
reportedProperty: Ki

Given the entry O=C(O)c1cc(NC(=O)N(c2ccccc2)c2ccccc2)c2c(Cl)cc(Cl)cc2n1 [DCUKA] , what Ki was observed with UniProt:P08588?
> 10 µM

----------
- targetOrSystem: β2 (Adrenergic Rs (beta adrenergic)) (Homo sapiens, UniProt P07550)
reportedProperty: Ki

Returns the measured Ki for the input compound. Input: `O=C(O)c1cc(NC(=O)N(c2ccccc2)c2ccccc2)c2c(Cl)cc(Cl)cc2n1`
> 10 µM

----------
- targetOrSystem: 5-HT3 (Serotonin Rs) (Homo sapiens)
- Sequence (P46098 24-478): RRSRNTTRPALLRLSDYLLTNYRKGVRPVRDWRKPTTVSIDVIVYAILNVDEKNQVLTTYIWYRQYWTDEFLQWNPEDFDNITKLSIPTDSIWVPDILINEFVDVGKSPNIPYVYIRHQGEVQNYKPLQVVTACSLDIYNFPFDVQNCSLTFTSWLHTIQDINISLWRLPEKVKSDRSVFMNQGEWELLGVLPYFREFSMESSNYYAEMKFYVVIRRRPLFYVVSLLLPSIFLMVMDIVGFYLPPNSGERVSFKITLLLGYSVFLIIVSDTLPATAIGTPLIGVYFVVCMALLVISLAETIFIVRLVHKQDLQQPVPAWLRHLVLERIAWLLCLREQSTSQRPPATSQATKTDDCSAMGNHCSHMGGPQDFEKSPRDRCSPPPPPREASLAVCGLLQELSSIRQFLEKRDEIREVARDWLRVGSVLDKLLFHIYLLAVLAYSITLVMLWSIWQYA
pKi: −log10 of the molar value.
reportedProperty: pKi

Given the entry `O=C(O)c1cc(NC(=O)N(c2ccccc2)c2ccccc2)c2c(Cl)cc(Cl)cc2n1` , what pKi was observed with 5-HT3 (Serotonin Rs) (Homo sapiens)?
< 5.00

----------
- targetOrSystem: MOR (μ opiate receptor) (Homo sapiens)
- Sequence (P35372 whole entry): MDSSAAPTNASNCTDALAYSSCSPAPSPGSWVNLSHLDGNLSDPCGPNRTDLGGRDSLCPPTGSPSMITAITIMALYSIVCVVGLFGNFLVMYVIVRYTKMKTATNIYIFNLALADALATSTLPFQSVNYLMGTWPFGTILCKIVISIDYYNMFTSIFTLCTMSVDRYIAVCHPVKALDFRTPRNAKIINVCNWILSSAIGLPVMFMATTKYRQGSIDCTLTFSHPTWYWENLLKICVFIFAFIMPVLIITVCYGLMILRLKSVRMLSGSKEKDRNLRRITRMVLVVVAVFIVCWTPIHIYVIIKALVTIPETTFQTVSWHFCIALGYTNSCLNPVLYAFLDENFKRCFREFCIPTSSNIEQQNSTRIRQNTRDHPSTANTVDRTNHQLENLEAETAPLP
reportedProperty: Ki

Given the entry `O=C(O)c1cc(NC(=O)N(c2ccccc2)c2ccccc2)c2c(Cl)cc(Cl)cc2n1` , what Ki was observed with MOR (μ opiate receptor) (Homo sapiens)?
> 10 µM

----------
- targetOrSystem: 5-HT1B (Serotonin Rs) (Homo sapiens, UniProt P28222)
- Sequence (P28222 whole entry): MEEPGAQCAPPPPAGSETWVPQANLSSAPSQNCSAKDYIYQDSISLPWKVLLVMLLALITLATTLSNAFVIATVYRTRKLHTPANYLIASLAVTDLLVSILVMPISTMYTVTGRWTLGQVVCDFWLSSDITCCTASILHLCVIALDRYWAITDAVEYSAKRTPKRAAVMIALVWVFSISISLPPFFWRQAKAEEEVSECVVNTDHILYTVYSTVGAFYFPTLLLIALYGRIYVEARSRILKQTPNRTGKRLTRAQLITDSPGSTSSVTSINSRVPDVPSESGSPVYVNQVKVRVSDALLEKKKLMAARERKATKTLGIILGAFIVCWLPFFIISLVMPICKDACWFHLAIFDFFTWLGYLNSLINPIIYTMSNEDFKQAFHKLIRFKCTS
- experimentalDetails: PDSP radioligand binding
pKi: −log10 of the molar value.
reportedProperty: pKi

Returns the measured pKi for the input molecule. Input: `O=C(O)c1cc(NC(=O)N(c2ccccc2)c2ccccc2)c2c(Cl)cc(Cl)cc2n1`
< 5.00

----------
Target chain: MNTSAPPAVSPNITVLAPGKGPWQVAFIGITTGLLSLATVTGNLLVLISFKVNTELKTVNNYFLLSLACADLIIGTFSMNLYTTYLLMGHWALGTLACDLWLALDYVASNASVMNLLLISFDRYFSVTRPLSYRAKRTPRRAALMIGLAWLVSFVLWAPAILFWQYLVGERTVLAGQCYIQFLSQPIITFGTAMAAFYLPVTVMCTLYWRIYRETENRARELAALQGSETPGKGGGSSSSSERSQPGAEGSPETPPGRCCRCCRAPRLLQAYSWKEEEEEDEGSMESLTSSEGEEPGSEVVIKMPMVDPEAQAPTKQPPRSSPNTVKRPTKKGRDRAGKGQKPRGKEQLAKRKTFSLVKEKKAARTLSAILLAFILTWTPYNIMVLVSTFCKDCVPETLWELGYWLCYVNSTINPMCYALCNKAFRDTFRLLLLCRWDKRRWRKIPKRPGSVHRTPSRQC
reportedProperty: Ki

Returns the measured Ki for the input compound. Input: O=C(O)c1cc(NC(=O)N(c2ccccc2)c2ccccc2)c2c(Cl)cc(Cl)cc2n1 [DCUKA]
> 10 µM

----------
- targetOrSystem: UniProt P21554
- Sequence (P21554 whole entry): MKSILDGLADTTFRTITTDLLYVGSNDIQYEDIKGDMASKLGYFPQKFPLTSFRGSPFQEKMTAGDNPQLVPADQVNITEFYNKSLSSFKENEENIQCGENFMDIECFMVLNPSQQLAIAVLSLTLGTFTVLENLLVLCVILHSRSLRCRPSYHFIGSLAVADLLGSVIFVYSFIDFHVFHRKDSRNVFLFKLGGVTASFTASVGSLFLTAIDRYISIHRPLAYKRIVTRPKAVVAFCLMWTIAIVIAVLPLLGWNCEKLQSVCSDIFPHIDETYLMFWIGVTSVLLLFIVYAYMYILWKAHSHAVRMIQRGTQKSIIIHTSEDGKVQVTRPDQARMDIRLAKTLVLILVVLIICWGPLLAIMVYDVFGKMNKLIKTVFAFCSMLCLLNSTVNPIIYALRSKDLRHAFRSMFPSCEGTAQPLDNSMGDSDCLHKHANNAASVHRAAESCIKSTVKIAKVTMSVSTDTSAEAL
reportedProperty: pKi
In textbook form, pKi equals minus log to base ten of the concentration in mol/L.

Given the entry O=C(O)c1cc(NC(=O)N(c2ccccc2)c2ccccc2)c2c(Cl)cc(Cl)cc2n1 [DCUKA] , what pKi was observed with UniProt P21554?
4.96

----------
- targetOrSystem: D1 (Dopamine Rs) (Homo sapiens, UniProt P21728)
- Sequence (P21728 whole entry): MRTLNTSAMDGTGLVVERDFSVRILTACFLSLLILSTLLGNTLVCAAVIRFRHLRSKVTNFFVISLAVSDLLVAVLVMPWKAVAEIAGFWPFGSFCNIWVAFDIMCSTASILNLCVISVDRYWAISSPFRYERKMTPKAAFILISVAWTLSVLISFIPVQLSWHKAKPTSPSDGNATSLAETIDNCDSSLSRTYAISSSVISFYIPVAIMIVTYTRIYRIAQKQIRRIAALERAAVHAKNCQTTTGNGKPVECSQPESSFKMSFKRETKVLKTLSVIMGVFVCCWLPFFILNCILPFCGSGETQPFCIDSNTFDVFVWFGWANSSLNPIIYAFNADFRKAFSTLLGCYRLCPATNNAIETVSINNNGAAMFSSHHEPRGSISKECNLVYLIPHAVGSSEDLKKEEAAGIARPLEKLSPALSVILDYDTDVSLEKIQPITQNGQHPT
- experimentalDetails: PDSP radioligand binding
reportedProperty: Ki

Returns the measured Ki for the input molecule. Input: `O=C(O)c1cc(NC(=O)N(c2ccccc2)c2ccccc2)c2c(Cl)cc(Cl)cc2n1`
> 10 µM

----------
- targetOrSystem: V1A (Vasopressin) (Homo sapiens)
- Sequence (P37288 whole entry): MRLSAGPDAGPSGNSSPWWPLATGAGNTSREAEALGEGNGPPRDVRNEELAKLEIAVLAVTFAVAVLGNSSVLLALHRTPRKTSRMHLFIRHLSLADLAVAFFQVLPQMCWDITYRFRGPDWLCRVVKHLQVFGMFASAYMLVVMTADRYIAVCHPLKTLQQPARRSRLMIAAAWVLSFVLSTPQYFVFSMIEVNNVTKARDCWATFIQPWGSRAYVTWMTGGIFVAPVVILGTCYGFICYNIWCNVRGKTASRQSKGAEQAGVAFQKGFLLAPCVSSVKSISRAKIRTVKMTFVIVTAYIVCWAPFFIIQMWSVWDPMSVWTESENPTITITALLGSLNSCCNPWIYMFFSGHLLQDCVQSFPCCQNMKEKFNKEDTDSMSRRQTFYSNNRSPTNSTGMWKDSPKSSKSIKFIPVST
pKi: −log10 of the molar value.
reportedProperty: pKi

Given the entry `O=C(O)c1cc(NC(=O)N(c2ccccc2)c2ccccc2)c2c(Cl)cc(Cl)cc2n1` , what pKi was observed with V1A (Vasopressin) (Homo sapiens)?
< 5.00
